- target system: Thymidine kinase 2, mitochondrial (rat)
- assay protocol: Competitive inhibition against rat Mitochondrial thymidine kinase
reported metric: Ki
# output: numeric value plus its unit

Which measured Ki value corresponds to CCO[C@H]1C[C@H](n2cc(C)c(=O)[nH]c2=O)O[C@@H]1CO ?
56 µM

---

- target system: Thymidine kinase 2, mitochondrial (rat)
- assay protocol: Noncompetitive inhibition against rat mitochondrial thymidine kinase
reported metric: Ki
# output: numeric value plus its unit

Which measured Ki value corresponds to Nc1nc(=O)n([C@H]2C[C@H](O)[C@@H](CO)O2)cc1I ?
3.5 mM

---

- target system: Thymidine kinase 2, mitochondrial (rat)
- assay protocol: Competitive inhibition against rat Mitochondrial thymidine kinase
reported metric: pKi
Please report pKi as the negative decimal logarithm of the molar concentration, giving only the number.

Which measured pKi value corresponds to Cc1cn([C@H]2C[C@H](O)[C@@H](CO)O2)c(=O)nc1N ?
2.89

---

- target system: Thymidine kinase 2, mitochondrial (rat)
- assay protocol: Non-competitive inhibition against rat mitochondrial thymidine kinase
Assign pKi to each entry below.
Please report pKi as the negative decimal logarithm of the molar concentration, giving only the number.

Which measured pKi value corresponds to Cc1cn(C2CC(O)C(CSCCCC(=O)O)O2)c(=O)[nH]c1=O (configuration not stated) ?
2.07

Which measured pKi value corresponds to C/C=C/c1cn([C@H]2C[C@H](O)[C@@H](CO)O2)c(=O)[nH]c1=O ?
3.29
